List of inhibition at 1 µM values.
- assayed system: Aurora-A(h) (Homo sapiens)
- Construct: purchased Millipore (KinaseProfiler service); also Reaction Biology Corp. (Kinase Hotspot)
- assay name: Aurora-A kinase assay (KinaseProfiler Service Assay Protocols, Millipore; also Kinase Hotspot, Reaction Biology Corp.)
- Assay type: biochemical
- cond: compound concentration 1 μM

In the examples that follow, each entry is paired with its recorded inhibition at 1 µM.
smiles data: Cc1cnc(Nc2nc(Sc3ccc(NC(=O)C4CC4)cc3)nc(N3CCN(c4ccncc4)CC3)n2)s1
assayed system: Aurora-A(h) (Homo sapiens)
measured quantity: inhibition at 1 µM
recorded measurement: > 90%

smiles data: CCCc1cc(Nc2nc(Sc3ccc(NC(=O)C4CC4)cc3)nc(N3CCN(C)CC3)n2)n[nH]1
assayed system: Aurora-A(h) (Homo sapiens)
measured quantity: inhibition at 1 µM
recorded measurement: < 50%

smiles data: CC(=O)Nc1ccc(Sc2nc(Nc3ncc(C)s3)nc(N3CCN(C)CC3)n2)cc1
assayed system: Aurora-A(h) (Homo sapiens)
measured quantity: inhibition at 1 µM
recorded measurement: > 90%

smiles data: CCC(=O)Nc1ccc(Sc2nc(Nc3cc(C)[nH]n3)nc(C3CC3)n2)cc1
assayed system: Aurora-A(h) (Homo sapiens)
measured quantity: inhibition at 1 µM
recorded measurement: > 90%

smiles data: Cc1cc(Nc2nc(Sc3ccc(NC(=O)C4CC4)cc3)nc(N3CCN(C)CC3)n2)on1
assayed system: Aurora-A(h) (Homo sapiens)
measured quantity: inhibition at 1 µM
recorded measurement: > 50%

### Prompt Which inhibition at 1 µM value belongs to CN1CCN(c2nc(Nc3cc(C(C)(C)C)[nH]n3)nc(Sc3ccc(NC(=O)C4CC4)cc3)n2)CC1 ?
### Response > 50%

### Prompt Consider next the molecule CCC(=O)Nc1ccc(Sc2nc(Nc3ncc(C)s3)nc(N3CCN(C)CC3)n2)cc1 in the same way.
### Response > 90%

### Prompt Ok, now CCc1nc(Nc2cc(C)[nH]n2)nc(N2CCN(C)CC2)n1
### Response < 50%

====

Measured inhibition at 1 µM, listed per entry.
- assayed system: Aurora-A(h) (Homo sapiens)
- Construct: purchased Millipore (KinaseProfiler service); also Reaction Biology Corp. (Kinase Hotspot)
- assay name: Aurora-A kinase assay (KinaseProfiler Service Assay Protocols, Millipore; also Kinase Hotspot, Reaction Biology Corp.)
- Type: biochemical
- cond: compound concentration 1 μM

Study these solved cases before continuing.
smiles data: O=C(Nc1ccc(Sc2nc(Nc3ncc[nH]3)nc(-c3ccccc3)n2)cc1)C1CC1
measured quantity: inhibition at 1 µM
recorded measurement: < 50%

smiles data: Cc1cc(Nc2nc(Sc3ccc(C(=O)NC4CC4)cc3)nc(N3CCN(C)CC3)n2)n[nH]1
measured quantity: inhibition at 1 µM
recorded measurement: > 50%

smiles data: CCN(CC)c1nc(Nc2cc(C)[nH]n2)nc(Sc2ccc(NC(=O)C3CC3)cc2)n1
measured quantity: inhibition at 1 µM
recorded measurement: > 90%

### Prompt Value lookup for inhibition at 1 µM; key = Cc1cnc(Nc2nc(Sc3ccc(NC(=O)C(C)C)cc3)nc(N3CCN(C)CC3)n2)s1
### Response > 90%

### Prompt Same thing, different compound: Cc1cnc(Nc2nc(Sc3ccc(NC(=O)C4CC4)cc3)nc(N3CCN(C)CC3)n2)s1
### Response > 90%

### Prompt Queued: CC(=O)Nc1ccc(Sc2nc(CC(C)C)nc(Nc3ncc(C)s3)n2)cc1
### Response < 50%

### Prompt What about this compound? CCc1nc(Nc2cc(C)[nH]n2)nc(N2CCN(c3ccncc3)CC2)n1
### Response > 50%

### Prompt Same question, CN1CCN(c2nc(Nc3cc(C4CC4)[nH]n3)nc(Sc3ccc(NC(=O)C4CC4)cc3)n2)CC1 this time
### Response > 90%

### Prompt Next compound up: CC(=O)Nc1ccc(Sc2nc(CC(C)C)nc(-n3cc(C)sc3=N)n2)cc1
### Response < 50%

### Prompt For Cc1cc(Nc2nc(Sc3ccc(NC(=O)C4CC4)cc3)nc(N(C)C)n2)n[nH]1 then?
### Response > 90%

### Prompt Another compound to look at: Cc1cc(Nc2nc(Sc3ccc(NC(=O)C4CC4)cc3)nc(N3CCN(C)CC3)n2)no1
### Response < 50%

### Prompt Same lookup for Cc1cc(Nc2nc(N)nc(Sc3ccc(NC(=O)C4CC4)cc3)n2)n[nH]1 , please.
### Response > 90%

### Prompt Now the compound Cc1cc(Nc2nc(NCCN(C)C)nc(Sc3ccc(NC(=O)C4CC4)cc3)n2)n[nH]1
### Response > 90%

====

- assayed system: Aurora-A(h) (Homo sapiens, UniProt O14965)
- Construct: purchased Millipore (KinaseProfiler service); also Reaction Biology Corp. (Kinase Hotspot)
- assay name: Aurora-A kinase assay (KinaseProfiler Service Assay Protocols, Millipore; also Kinase Hotspot, Reaction Biology Corp.)
- Assay type: biochemical
- cond: compound concentration 1 μM
# inhibition at 1 µM per record follows

smiles data: Cc1ccnc(Nc2nc(Sc3ccc(NC(=O)C4CC4)cc3)nc(N3CCN(C)CC3)n2)n1
inhibition at 1 µM: < 50%
//
smiles data: CCCCNc1nc(Nc2ncc(C)s2)nc(Sc2ccc(NC(=O)C3CC3)cc2)n1
inhibition at 1 µM: < 50%
//
smiles data: Cc1cc(Nc2nc(Sc3ccc(NC(=O)C4CC4)cc3)nc(N3CCN(CCO)CC3)n2)n[nH]1
inhibition at 1 µM: > 90%
//
smiles data: Cc1cc(Nc2nc(Sc3ccc(C(=O)NC(C)C)cc3)nc(N3CCN(C)CC3)n2)n[nH]1
inhibition at 1 µM: > 90%
//
smiles data: CCC(=O)Nc1ccc(Sc2nc(N3CCN(C)CC3)nc(-n3cc(C)sc3=N)n2)cc1
inhibition at 1 µM: < 50%
//
smiles data: Cc1cc(Nc2nc(Sc3ccc(NC(=O)C4CC4)cc3)nc(C3CC3)n2)n[nH]1
inhibition at 1 µM: > 90%
//
smiles data: Cc1nnc(Nc2nc(Sc3ccc(NC(=O)C4CC4)cc3)nc(N3CCN(C)CC3)n2)s1
inhibition at 1 µM: < 50%

### Prompt Which inhibition at 1 µM value belongs to Cc1cnc(Nc2nc(Sc3ccc(N)cc3)nc(N3CCN(C)CC3)n2)s1 ?
### Response > 50%

====

The reader will find reported inhibition at 1 µM values listed item by item below.
- assayed system: Aurora-A(h) (Homo sapiens)
- Construct: purchased Millipore (KinaseProfiler service); also Reaction Biology Corp. (Kinase Hotspot)
- Sequence (O14965 1-403): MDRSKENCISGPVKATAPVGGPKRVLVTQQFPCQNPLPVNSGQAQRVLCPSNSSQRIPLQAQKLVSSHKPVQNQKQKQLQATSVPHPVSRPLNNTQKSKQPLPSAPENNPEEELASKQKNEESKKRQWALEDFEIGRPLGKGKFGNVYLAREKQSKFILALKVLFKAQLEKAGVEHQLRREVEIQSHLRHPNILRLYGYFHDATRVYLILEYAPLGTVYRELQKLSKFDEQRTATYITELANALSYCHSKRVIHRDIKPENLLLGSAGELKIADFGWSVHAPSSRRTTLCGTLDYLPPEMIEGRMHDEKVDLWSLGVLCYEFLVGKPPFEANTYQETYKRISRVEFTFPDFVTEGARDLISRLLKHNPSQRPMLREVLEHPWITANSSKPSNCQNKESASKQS
- assay name: Aurora-A kinase assay (KinaseProfiler Service Assay Protocols, Millipore; also Kinase Hotspot, Reaction Biology Corp.)
- Assay type: biochemical
- cond: compound concentration 1 μM

Consider the worked cases shown below.
smiles data: Cc1nc(Nc2nc(Sc3ccc(NC(=O)C4CC4)cc3)nc(N3CCN(C)CC3)n2)sc1C
inhibition at 1 µM: < 50%
//
smiles data: Cc1cn(-c2nc(Sc3ccc(NC(=O)C4CC4)cc3)nc(N3CCN(C)CC3)n2)c(=N)s1
inhibition at 1 µM: < 50%
//
smiles data: CN1CCN(c2nc(Nc3cc(C4CCC4)[nH]n3)nc(Sc3ccc(NC(=O)C4CC4)cc3)n2)CC1
inhibition at 1 µM: > 90%
//
smiles data: CC(=O)Nc1ccc(Sc2nc(N3CCN(C)CC3)nc(-n3cc(C)sc3=N)n2)cc1
inhibition at 1 µM: < 50%
//
smiles data: CCC(=O)Nc1ccc(Sc2nc(CC)nc(Nc3cc(C4CC4)[nH]n3)n2)cc1
inhibition at 1 µM: > 90%

### Prompt Query the reported inhibition at 1 µM for Aurora-A(h) (Homo sapiens); item: Cc1csc(Nc2nc(Sc3ccc(NC(=O)C4CC4)cc3)nc(N3CCN(C)CC3)n2)n1
### Response < 50%

### Prompt Lookup Cc1cnc(Nc2nc(Sc3ccc(NC(=O)C4CC4)cc3)nc(N(C)CCN(C)C)n2)s1
### Response > 50%

====

- assayed system: Aurora-A(h) (Homo sapiens, UniProt O14965)
- Construct: purchased Millipore (KinaseProfiler service); also Reaction Biology Corp. (Kinase Hotspot)
- assay name: Aurora-A kinase assay (KinaseProfiler Service Assay Protocols, Millipore; also Kinase Hotspot, Reaction Biology Corp.)
- Assay type: biochemical
- cond: compound concentration 1 μM
A collection of compounds and their measured inhibition at 1 µM

compound: CC(C)C(=O)Nc1ccc(Sc2nc(Nc3cc(C4CC4)[nH]n3)nc(C3CC3)n2)cc1 [Example 79]
inhibition at 1 µM: > 90%

compound: Cc1cc(Nc2nc(Sc3ccc(C(=O)NCc4ccc(F)cc4)cc3)nc(N3CCN(C)CC3)n2)n[nH]1 [Example 118]
inhibition at 1 µM: > 90%

compound: CN1CCN(c2nc(Nc3ncc(Cl)s3)nc(Sc3ccc(NC(=O)C4CC4)cc3)n2)CC1 [Example 50]
inhibition at 1 µM: > 90%

compound: Cc1cnc(Nc2nc(Sc3cccc(N)c3)nc(N3CCN(C)CC3)n2)s1 [Example 49]
inhibition at 1 µM: > 50%

API: the following record is the query input.
### Prompt Using the record for CCOC(=O)c1cc(Nc2nc(Sc3ccc(NC(=O)C4CC4)cc3)nc(N3CCN(C)CC3)n2)n[nH]1 [Example 30] , report its inhibition at 1 µM.
### Response > 90%
